B1: ETS1 (parent)
chain: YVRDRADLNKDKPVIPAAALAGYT

Variants of: B1
TEST NAME: protein stability index of a GFP-peptide fusion (GPS, HEK-293T) (PSI 1-6); higher = more stable;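 also: lentivirally expressed fusions sorted by FACS into six bins by GFP to DsRed ratio, PSI derived from sequencing read proportions per bin multiplied by bin number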
MEASUREMENT PARAMETERS: c terminus: a fixed tail appended
# protein stability index annotations
READOUT KIND: protein stability index

variant_string=R5W readout_kind="protein stability index" numeric_readout=2.48
variant_string=A19K readout_kind="protein stability index" numeric_readout=2.9
variant_string=R3C readout_kind="protein stability index" numeric_readout=1.75
variant_string=Y1H readout_kind="protein stability index" numeric_readout=3.7
variant_string=Y1L readout_kind="protein stability index" numeric_readout=3.79
variant_string=R5C readout_kind="protein stability index" numeric_readout=2.36
variant_string=A21R readout_kind="protein stability index" numeric_readout=2.07
variant_string=A18L readout_kind="protein stability index" numeric_readout=2.88
variant_string=D11N readout_kind="protein stability index" numeric_readout=2.91
variant_string=A19C readout_kind="protein stability index" numeric_readout=1.86
variant_string=K10E readout_kind="protein stability index" numeric_readout=1.88
variant_string=G22D readout_kind="protein stability index" numeric_readout=2.53
variant_string=T24W readout_kind="protein stability index" numeric_readout=4.5
variant_string=D11W readout_kind="protein stability index" numeric_readout=2.56
variant_string=V2S readout_kind="protein stability index" numeric_readout=3.76
variant_string=V2Y readout_kind="protein stability index" numeric_readout=3.5
variant_string=R5T readout_kind="protein stability index" numeric_readout=2.02
variant_string=A18E readout_kind="protein stability index" numeric_readout=1.88
variant_string=A18R readout_kind="protein stability index" numeric_readout=1.93
variant_string=A21K readout_kind="protein stability index" numeric_readout=2.08
variant_string=D11E readout_kind="protein stability index" numeric_readout=2.5
variant_string=G22R readout_kind="protein stability index" numeric_readout=1.69
variant_string=A6W readout_kind="protein stability index" numeric_readout=2.71
variant_string=T24F readout_kind="protein stability index" numeric_readout=1.84
variant_string=K12G readout_kind="protein stability index" numeric_readout=2.17
variant_string=D11V readout_kind="protein stability index" numeric_readout=3.03
variant_string=N9I readout_kind="protein stability index" numeric_readout=2.58
variant_string=D11T readout_kind="protein stability index" numeric_readout=2.16
variant_string=L20N readout_kind="protein stability index" numeric_readout=1.94
variant_string=A18F readout_kind="protein stability index" numeric_readout=1.83
variant_string=D11Q readout_kind="protein stability index" numeric_readout=2.78
variant_string=A17S readout_kind="protein stability index" numeric_readout=2.25
variant_string=Y23V readout_kind="protein stability index" numeric_readout=2.13
variant_string=R5L readout_kind="protein stability index" numeric_readout=1.82
variant_string=Y1Q readout_kind="protein stability index" numeric_readout=4.41
variant_string=A6C readout_kind="protein stability index" numeric_readout=2
variant_string=T24R readout_kind="protein stability index" numeric_readout=2.1
variant_string=A6V readout_kind="protein stability index" numeric_readout=2.29
variant_string=Y1I readout_kind="protein stability index" numeric_readout=3.73
variant_string=V14E readout_kind="protein stability index" numeric_readout=1.97
variant_string=A17T readout_kind="protein stability index" numeric_readout=2.11
variant_string=N9L readout_kind="protein stability index" numeric_readout=2.81
variant_string=G22V readout_kind="protein stability index" numeric_readout=2.74
variant_string=V2C readout_kind="protein stability index" numeric_readout=2.25
variant_string=I15C readout_kind="protein stability index" numeric_readout=2.84
variant_string=D7L readout_kind="protein stability index" numeric_readout=2.51
